- tgt: T1, human MSLN-R3 protein (human, UniProt Q13421 487-598)
- T1 construct: also called hMSLN-R3
- experimental protocol: ELISA on coated antigen, antibody 0.01 nM
reported endpoint: OD450 (OD450)
Numeric only. Scale: OD450

Need OD450, item F7.44.20-H8 (scFv, not shown: small tags and cut ends, also called S009-F7.44.20 humanized antibody VH1a + VL4) scFv: EVQLVQSGAEVKKPGASVKVSCKASGYTFTDYNMDWVRQAPGQGLEWMGDINPSTGGTIYNQKFQGRVTMTEDKSTSTVYMELSSLRSEDTAVYYCARRRIGTGYFDVWGQGTTVTVSSGGGGSGGGGSGGGGSEIVLTQSPATLSLSPGERATLSCSASSSVISSYLSWYQQKPGSSPRLLIYRTSNLASGIPARFSGSGSGTDYTLTISSLEPEDFAVYYCHQWSSFPYTFGGGTKVEIK
0.04

Reported OD450, binder F7.44.20-H7 (scFv, not shown: small tags and cut ends, also called S009-F7.44.20 humanized antibody VH1a + VL3) scFv: EVQLVQSGAEVKKPGASVKVSCKASGYTFTDYNMDWVRQAPGQGLEWMGDINPSTGGTIYNQKFQGRVTMTEDKSTSTVYMELSSLRSEDTAVYYCARRRIGTGYFDVWGQGTTVTVSSGGGGSGGGGSGGGGSEIVLTQSPATLSLSPGERATLSCSASSSVISSYLSWYQQKPGQSPRLLIYRTSNLASGIPARFSGSGSGTDYTLTISSLEPEDFAVYYCHQWSSFPYTFGGGTKVEIK : ____
0.05

Where do these numbers come from? They come from patent US20250250357A1.
